Measured target: T1, CD123 (Homo sapiens (Human), UniProt P26951 19-305, limits assumed)
T1 construct: The CD123 construct used in the ELISA is not described; also called CD123-Signal
T1 sequence: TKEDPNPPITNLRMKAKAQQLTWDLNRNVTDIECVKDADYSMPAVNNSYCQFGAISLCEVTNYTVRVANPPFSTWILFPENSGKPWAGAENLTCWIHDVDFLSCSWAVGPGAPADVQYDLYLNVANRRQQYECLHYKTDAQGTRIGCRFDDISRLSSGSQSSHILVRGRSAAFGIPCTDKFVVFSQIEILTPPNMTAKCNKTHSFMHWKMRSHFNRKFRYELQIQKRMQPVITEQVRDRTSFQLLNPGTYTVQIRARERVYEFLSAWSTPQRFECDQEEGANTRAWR
Experiment notes: ELISA
Set-up: unit not given here
With a cut-off of 4, any ELISA_avg strictly below it is called MET; any ELISA_avg meeting it or above is called NOT MET.

# Binder, Assigned class
rows = [
    ("D domain of SEQ ID NO: 652 (designed binder) MGSWIEFWNRLEAIEERLYALGGSEAELAYFEDEIAEFEIYLQQYKGKGNPEVEALKHEAEAINKELMAYRHN", "NOT MET"),
    ("D domain of SEQ ID NO: 534 (designed binder) MGSWNFFKYDLADIMAYLEALGGSEAELAFFEDEIANFEHDLQKYKGKGNPEVEALRKEAAAIRDELQAYRHN", "NOT MET"),
    ("D domain of SEQ ID NO: 544 (designed binder) MGSWVRFKDFLADIKMDLEALGGSEAELADFEYHIAEFEHNLQEYKGKGNPEVEALRKEAAAIRDELQAYRHN", "NOT MET"),
    ("D domain of SEQ ID NO: 543 (designed binder) MGSWFEFKDYLADIKWDLEALGGSEAELAIFEHDIAYFEHNLQQYKGKGNPEVEALRKEAAAIRDELQAYRHN", "MET"),
    ("D domain of SEQ ID NO: 472 (designed binder) MGSWQWFKDDLAYIKETLEALGGSEAELALFEDMIADFEFELQWYKGKGNPEVEALRKEAAAIRDELQAYRHN", "NOT MET"),
]
